# Test Target: Neurogenic locus notch homolog protein 2 (Homo sapiens)
# Assay Procedure: small molecules binding Notch2 protein – biochemical, small-molecule microarray, 635 nm fluorescence, stem cell growth factors, primary screen (AID 1073)
# Condition Parameters: higher = more signal
Decide by composite z-score: equal to or exceeding -0.02 means yes, less means no.

Compound: O=C(O)[C@@H]1[C@@H]2C(=O)N(c3ccccc3)C(=O)[C@@H]2C[C@@H]1Sc1ccccc1
Category: no
//
Compound: COC(=O)c1c(CC[C@@H](CO)NC(=O)N[C@@H](C)Cn2cc(-c3ccccn3)nn2)oc(C(C)=O)c1C(=O)OC
Category: no
//
Compound: C=C[C@H]1C(C(=O)OCC)=CC[C@@H](c2ccccc2)N1S(=O)(=O)c1ccc(C)cc1
Category: yes
//
Compound: NC(=O)NCC#Cc1ccc2c(c1)[C@]1(C(=O)N2)[C@H](c2ccccc2OCCO)N2[C@H](c3ccccc3)[C@H](c3ccccc3)OC(=O)[C@H]2[C@@H]1C(=O)O
Category: no
//
Compound: OCCCC1=CC(c2ccc(CN3CCCC3)cc2)N(Cc2cc3c(cc2Br)OCO3)CC1 (configuration not stated)
Category: no

Does the compound Cc1ccc(S[C@]2(C(=O)NCC(F)(F)F)CC(=O)N(Cc3cc(C(F)(F)F)cc(C(F)(F)F)c3)[C@@H]2c2ccc(CO)cc2)cc1 have recorded composite z-score that is -0.02 or more? no

Does the compound COC(=O)[C@@]1(Cc2ccc(F)cc2)[C@H]2c3cc(C(=O)N(C)C)n(Cc4ccc(OC(F)(F)F)cc4)c3C[C@H]2CN1C(=O)c1ccccc1 have recorded composite z-score that is -0.02 or more? yes

Does the compound NC(=O)NCC#Cc1ccc2c(c1)[C@]1(C(=O)N2)[C@H](c2ccccc2OCCO)N2[C@H](c3ccccc3)[C@H](c3ccccc3)OC(=O)[C@H]2[C@@H]1C(=O)NC[C@H](O)c1ccccc1 have recorded composite z-score that is -0.02 or more? no

Does the compound CC(C)N1C(=O)C[C@@](C(=O)NC2CC2)(c2ccc([N+](=O)[O-])cc2)[C@H]1c1ccc(CO)cc1 have recorded composite z-score that is -0.02 or more? no

Does the compound C=CCC(OC(C)=O)[C@@H]1[C@@H](N(Cc2ccc(-c3ccccc3)cc2)C(=O)c2ccc(-c3ccccc3)cc2)c2cc(OCCCO)ccc2N1C(=O)c1ccc2ccccc2c1 (some centres not stated) have recorded composite z-score that is -0.02 or more? no

Does the compound CCCCCC1=C2CNC(C)(C(=O)OC)C=C2C(C)C1=O (configuration not stated) have recorded composite z-score that is -0.02 or more? yes

Does the compound CCCN1C(=O)[C@@]2(Cc3ccccc31)N=C(c1ccc(OCCCO)cc1)O[C@H]2c1ccccc1 have recorded composite z-score that is -0.02 or more? yes

Does the compound COc1ccc(C#Cc2ccc3c(c2)[C@]2(C(=O)N3)[C@H](c3ccc(OCCO)cc3)N3[C@H](c4ccccc4)[C@H](c4ccccc4)OC(=O)[C@H]3[C@@H]2C(=O)NC[C@H](O)c2ccccc2)cc1 have recorded composite z-score that is -0.02 or more? yes

Does the compound COCC(=C=CC[C@H](O)c1ccccc1OCCO)C[C@H](O)c1ccccn1 have recorded composite z-score that is -0.02 or more? no

Does the compound CC(C)NC(=O)[C@@]1(C)c2ccccc2C(=O)N(Cc2ccc(OC(F)(F)F)cc2)[C@H]1c1ccc(CO)cc1 have recorded composite z-score that is -0.02 or more? no

Does the compound CCCNC(=O)[C@@]1(Sc2ccc(C)cc2)CC(=O)N(C2Cc3ccccc3C2)[C@@H]1c1ccc(CO)cc1I have recorded composite z-score that is -0.02 or more? no

Does the compound COc1cc2c(cc1O)C(C1CC1)N(Cc1cccc(OC(F)(F)F)c1)CC2 (configuration not stated) have recorded composite z-score that is -0.02 or more? no

Does the compound O=C1OCCC=C[C@H]2OC34C=CCN(Cn5nnc6ccccc65)C(=O)[C@H]3N(CCCO)C(=O)[C@@H]4C12 (some centres not stated) have recorded composite z-score that is -0.02 or more? no

Does the compound C=CC[C@@]1(C(=O)NCCCOC)N=C(c2ccc(OCCCO)cc2)O[C@@H]1c1ccccc1 have recorded composite z-score that is -0.02 or more? no

Does the compound [N-]=[N+]=Nc1ccccc1[C@@H]1OC(c2ccc(OCCCO)cc2)=N[C@]1(Cc1ccccc1)C(=O)O have recorded composite z-score that is -0.02 or more? yes

Does the compound [N-]=[N+]=Nc1ccccc1[C@H]1OC(c2ccc(OCCCO)cc2)=N[C@@]1(Cc1ccccc1)C(=O)NCCN1CCOCC1 have recorded composite z-score that is -0.02 or more? yes

Does the compound C#Cc1cc2ccccc2oc1=O have recorded composite z-score that is -0.02 or more? no

Does the compound COc1cc(NN2C(C(O)c3ccco3)C=CC3C(=O)N(C)C(=O)C32)cc(OC)c1OC (configuration not stated) have recorded composite z-score that is -0.02 or more? yes

Does the compound CCCCCN1CC=CC23O[C@@H]4/C=C\CCC(C)OC(=O)C4[C@H]2C(=O)N(C(CO)C(C)C)[C@@H]3C1=O (some centres not stated) have recorded composite z-score that is -0.02 or more? no

Does the compound C=CC[C@]1(C(=O)N2CCCCC2)N=C(c2ccc(OCCCO)cc2)O[C@H]1c1ccccc1CN=[N+]=[N-] have recorded composite z-score that is -0.02 or more? yes

* * *

# Assay Procedure: compound effects on differentiated 3T3-L1 adipocyte viability – cell-based, 3T3-L1 adipocytes, calcein-AM fluorescence, 48 h, basal, profiling panel (AID 1163); also: test concentration not given here
# Condition Parameters: 3T3-L1 adipocytes viability, higher = more signal
Mark Condition met for z-score under -0.8, Condition not met if at or over.

Compound: CCCN1C(=O)[C@@]2(Cc3ccccc31)N=C(c1ccc(OCCCO)cc1)O[C@H]2c1ccccc1
Category: Condition not met
--
Compound: CN(C)C(=O)[C@]1(Cc2ccccc2CN=[N+]=[N-])N=C(c2ccc(OCCCO)cc2)O[C@@H]1c1ccccc1
Category: Condition not met
--
Compound: COC(=O)C1=CC(CCCO)=CC(c2ccc(CN3CCCC3)cc2)N(Cc2cccc(OC(F)(F)F)c2)C=C1C(=O)OC (stereo not drawn)
Category: Condition not met
--
Compound: CCCCC=C[C@@H](NC(=O)OCc1ccccc1Cl)c1ccccc1
Category: Condition met
--
Compound: COc1ccc(CCNC(=O)[C@@]2(c3ccc([N+](=O)[O-])cc3)CC(=O)N(C3CCCCC3)[C@@H]2c2ccc(CO)cc2)cc1
Category: Condition not met

# TODO verify z-score < -0.8 strictly for this compound: C=C(/C(=C/C[C@H](OC(=O)c1ccncc1)c1ccc(CO)o1)c1cnc2ccccc2c1)C(C)C Condition not met

# TODO verify z-score < -0.8 strictly for this compound: CN1C(=O)C2C=CC(C(O)c3cccn3C)N(Nc3ccc([N+](=O)[O-])cc3[N+](=O)[O-])C2C1=O (stereo not drawn) Condition met

* * *

# composite z-score annotations
# Test Target: Torsin-1A-interacting protein 2 (Homo sapiens) (UniProt Q8NFQ8)
# Sequence (Q8NFQ8 whole entry, looked up): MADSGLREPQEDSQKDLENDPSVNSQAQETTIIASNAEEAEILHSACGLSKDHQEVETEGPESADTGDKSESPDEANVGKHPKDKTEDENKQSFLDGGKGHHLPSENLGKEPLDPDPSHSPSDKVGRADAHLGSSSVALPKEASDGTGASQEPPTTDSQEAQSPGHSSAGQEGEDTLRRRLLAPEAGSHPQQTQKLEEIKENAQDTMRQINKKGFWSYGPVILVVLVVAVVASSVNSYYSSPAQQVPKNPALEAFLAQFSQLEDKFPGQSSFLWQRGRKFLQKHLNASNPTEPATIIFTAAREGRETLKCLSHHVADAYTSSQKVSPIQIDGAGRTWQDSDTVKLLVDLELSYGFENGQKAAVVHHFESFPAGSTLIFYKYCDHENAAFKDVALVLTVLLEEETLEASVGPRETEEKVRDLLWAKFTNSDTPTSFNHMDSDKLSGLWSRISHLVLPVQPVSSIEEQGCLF
# Assay Procedure: small molecules binding lysate-expressed LULL1 – cell lysate, human LULL1 lysate, 635/667 nm fluorescence, primary screen (AID 1092);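 also: probe is lysate of COS7 cells overexpressing human LULL1; score merges per-feature 667 nm fluorescence with signal-to-noise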
# Condition Parameters: small-molecule microarray, hLULL1 lysate binding, 635 nm fluorescence; higher = more signal
API doc: respond with a numeric literal and nothing else, no unit.

Solved entries:
Compound: COc1ccc(C#Cc2ccc3c(c2)[C@]2(C(=O)N3)[C@H](c3ccc(OCCO)cc3)N3[C@H](c4ccccc4)[C@H](c4ccccc4)OC(=O)[C@H]3[C@@H]2C(=O)NC[C@H](O)c2ccccc2)cc1
Test Target: Torsin-1A-interacting protein 2 (Homo sapiens) (UniProt Q8NFQ8)
composite z-score: 3.08
--
Compound: C=CCC(OC(C)=O)[C@@H]1[C@@H](N(Cc2ccc(-c3cccc(C(F)(F)F)c3)o2)C(=O)c2ccc(-c3ccccc3)cc2)c2cc(OCCCO)ccc2N1C(=O)Cc1ccc2ccccc2c1 (some centres not stated)
Test Target: Torsin-1A-interacting protein 2 (Homo sapiens) (UniProt Q8NFQ8)
composite z-score: 0.512
--
Compound: CCOC(=O)C[C@H]1[C@H](OC(=O)c2ccc(C(=O)c3ccccc3)cc2)[C@@H](NC(=O)c2ccc(-c3ccccc3)cc2)c2cc(OCCCO)ccc2N1C(=O)Cc1ccc(OC)cc1
Test Target: Torsin-1A-interacting protein 2 (Homo sapiens) (UniProt Q8NFQ8)
composite z-score: 0.861
--
Compound: C=CCNC(=O)[C@@H]1[C@H]2C(=O)O[C@H](c3ccccc3)[C@H](c3ccccc3)N2[C@H](c2ccc(O)cc2)[C@@]12C(=O)N(C(=O)OCCOC)c1ccc(C#CC3=CCCCC3)cc12
Test Target: Torsin-1A-interacting protein 2 (Homo sapiens) (UniProt Q8NFQ8)
composite z-score: 2.25
--
Compound: O=C(NCCN1CCOCC1)[C@@H]1c2ccccc2C(=O)N(C2Cc3ccccc3C2)[C@H]1c1ccc(CO)cc1
Test Target: Torsin-1A-interacting protein 2 (Homo sapiens) (UniProt Q8NFQ8)
composite z-score: 3.2

For C=CC[C@]1(C(=O)N2CCCCC2)N=C(c2ccc(OCCCO)cc2)O[C@H]1c1ccccc1CN=[N+]=[N-] on Torsin-1A-interacting protein 2 (Homo sapiens) (UniProt Q8NFQ8), measured composite z-score was 3.19

For CCCNC(=O)[C@@H]1c2ccccc2C(=O)N(Cc2ccc(OC(F)(F)F)cc2)[C@H]1c1ccc(CO)cc1 on Torsin-1A-interacting protein 2 (Homo sapiens) (UniProt Q8NFQ8), measured composite z-score was 2.12

For COc1ccc(CCNC(=O)[C@@]2(Sc3ccc(C)cc3)CC(=O)N(Cc3ccccc3C(F)(F)F)[C@@H]2c2ccc(CO)cc2I)cc1 on Torsin-1A-interacting protein 2 (Homo sapiens) (UniProt Q8NFQ8), measured composite z-score was 1.97

For [N-]=[N+]=Nc1ccccc1C[C@@]1(C(=O)NCCN2CCOCC2)N=C(c2ccc(OCCCO)cc2)O[C@@H]1c1ccccc1N=[N+]=[N-] on Torsin-1A-interacting protein 2 (Homo sapiens) (UniProt Q8NFQ8), measured composite z-score was 3.19
